All figures here come from the supplement of paper PMC9170038.

# Tested on: K4 kissing-loop RNA reporter;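 also: bound reporter read as fluorescence of individual clusters on recovered sequencing chips by microscopy, with normalized cluster intensities fitted with a binding model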
# Run Description: apparent KD of K4 kissing-loop reporter; higher = weaker reporter binding
# Stated Conditions: Eterna round: R107; input ligand: theophylline 20 uM
apparent KD of K4 kissing-loop reporter overview
Experimental Readout: apparent KD of K4 kissing-loop reporter (nM)

>>> reported_value("AUUCGUUUAUGUGAUACCAGACUUUGCAGUGAUGUUGCAUUAAUUAUUGAUGAUUAGUUUGUCCCUUGGCAGCACUAUUUAUUUA [JR_SSTheophyB_Sub003]")
104
>>> reported_value("UACAUAUUAUUAUUUCUACAUUUAUUUAGUCAGGAUAUCGAUUAAACGAGAAGGGACAAUAUCAAGUGAUGUUUGAUAAUUCAAA [JR_SSFMNA_Sub022]")
118
>>> reported_value("CAUAUAUAUAGAGGAUAUCGAGUAGAGUGAUGUUCUGCCUGGGUUGGCUCGCAAGGGCCUUCCCAGCGAGAAGGCUAUAUAUAUG [harrys-mod#1ED5.33]")
431
